I'd appreciate it if you could supply T/C values for the items below.
Tested on: P388 leukemia ip, CD2F1 mice, survival T/C
EXPERIMENT SUMMARY: NCI In Vivo Anticancer Drug Screen. Data for tumor model P388 Leukemia (intraperitoneal) in CD2F1 (CDF1) mice
CONDITION SUMMARY: endpoint: median survival time; dose: 100.0 mg/kg/injection; schedule: Q01DX009 (ip); vehicle: saline; higher = longer survival
Toxic doses and inconclusive results are not listed.

These solved cases illustrate the format of a correct answer.
COMPOUND: C=CC(=O)NC(C)(C)CC(=O)O
RESULT: 100 % of control

COMPOUND: OC1CCC2CC2C1 (configuration not stated)
RESULT: 102 % of control

COMPOUND: CC1=CCCC(C)(C)C1/C=C(/C#N)C(=O)N=C(N)N (configuration not stated)
RESULT: 97 % of control

State the recorded T/C for every item in the following list.
1. CC(C)COC(CN(C)C)C(Cl)(Cl)Cl (configuration not stated)
2. CC(C)OP(=S)(OC(C)C)SC(C)C
3. CC(C)SC(=S)Nc1ccc(Cl)c(C(F)(F)F)c1
4. N#CCCNc1ccc(F)cc1

*A*
100 % of control
119 % of control
105 % of control
109 % of control

* * *

I'd appreciate it if you could supply T/C values for the items below.
Test system: P388 leukemia ip, CD2F1 mice, survival T/C
EXPERIMENT SUMMARY: NCI In Vivo Anticancer Drug Screen. Data for tumor model P388 Leukemia (intraperitoneal) in CD2F1 (CDF1) mice
CONDITION SUMMARY: endpoint: median survival time; dose: 100.0 mg/kg/injection; schedule: Q04DX003 (ip); vehicle: Klucel (hydroxypropylcellulose) (HPC); higher = longer survival
Toxic doses and inconclusive results are not listed.

These solved cases illustrate the format of a correct answer.
SMILES ENTRY: CCc1[nH]c2ccccc2c1C(=O)c1cccnc1
TARGET OR TEST SYSTEM: P388 leukemia ip, CD2F1 mice, survival T/C
T/C: 97 % of control

SMILES ENTRY: O=C(OC(C(F)(F)F)C(F)(F)F)c1ccccc1
TARGET OR TEST SYSTEM: P388 leukemia ip, CD2F1 mice, survival T/C
T/C: 105 % of control

SMILES ENTRY: C=CC(=O)OCCCCCCCCCC
TARGET OR TEST SYSTEM: P388 leukemia ip, CD2F1 mice, survival T/C
T/C: 101 % of control

SMILES ENTRY: Cc1cc(C)nc(N/N=C/c2c(Cl)cccc2Cl)n1
TARGET OR TEST SYSTEM: P388 leukemia ip, CD2F1 mice, survival T/C
T/C: 99 % of control

State the recorded T/C for every item in the following list.
1. C=Cn1c([N+](=O)[O-])cnc1/C=C/c1ccc(C(=O)OCCN2CCCCC2)cc1
2. O=C(C1=Cc2ccccc2OC1)N1CCN(c2ccccc2Cl)CC1
3. CCn1c(-c2ccccc2)nc(=S)c(C(=O)c2ccccc2)c1SC
4. N=C(N)SCCN1C(=O)NC(c2ccccc2)(c2ccccc2)C1=O

*A*
["105 % of control", "106 % of control", "98 % of control", "96 % of control"]

So, "Cc1cc(N(CCCl)CCCl)ccc1NC(=O)c1ccccc1" ? Its T/C was 118 % of control

* * *

Test system: P388 leukemia ip, CD2F1 mice, survival T/C
EXPERIMENT SUMMARY: NCI In Vivo Anticancer Drug Screen. Data for tumor model P388 Leukemia (intraperitoneal) in CD2F1 (CDF1) mice
CONDITION SUMMARY: endpoint: median survival time; dose: 12.5 mg/kg/injection; schedule: Q01DX005 (ip); vehicle: saline with Tween-80; higher = longer survival
Inconclusive results and toxic doses are left out.
REPORTED ENDPOINT: T/C

These solved cases illustrate the format of a correct answer.
COMPOUND: Cn1cccc1C(C=C(c1ccccc1)c1ccccc1)c1cccn1C
RESULT: 113 % of control
--
COMPOUND: CCN(CC)c1nc(N(CC)CC)c2[nH]cnc2n1
RESULT: 102 % of control
--
COMPOUND: C[Si]1(C)O[Si](C)(C)N(N)P(=S)(Oc2ccccc2)N1N
RESULT: 101 % of control
--
COMPOUND: Nc1nc(C(Br)Br)c([N+](=O)[O-])c(=O)[nH]1
RESULT: 100 % of control
--
COMPOUND: S=C=NP1(N=C=S)=NP(N=C=S)(N=C=S)=NP(N=C=S)(N=C=S)=NP(N=C=S)(N=C=S)=N1 (centres undefined)
RESULT: 100 % of control

State the recorded T/C for every item in the following list.
1. N=C(N)c1ccc(N=NNc2ccc(C(=N)N)cc2)cc1
2. CCCCCCC(=O)/C=C/c1ccc(OCc2ccccc2)c(OCc2ccccc2)c1
3. CCOC(=O)C1=CNc2ccccc2N=C1N
4. Cc1nc(N)nc(N)c1-c1ccc(N)cc1

*A*
["96 % of control", "92 % of control", "115 % of control", "105 % of control"]

* * *

Test system: P388 leukemia ip, CD2F1 mice, survival T/C
EXPERIMENT SUMMARY: NCI In Vivo Anticancer Drug Screen. Data for tumor model P388 Leukemia (intraperitoneal) in CD2F1 (CDF1) mice
CONDITION SUMMARY: endpoint: median survival time; dose: 100.0 mg/kg/injection; schedule: Q01DX009 (ip); vehicle: saline with Tween-80; higher = longer survival
Method: The antitumor activity of compounds was measured in mice bearing transplantable tumors. Survival or tumor size were measured and the results are expressed as the measurement made in the treated group (T) divided by the measurement made in the vehicle treated control group (C). The tumor model used in this assay is P388 Leukemia (intraperitoneal) in CD2F1 (CDF1) mice
Toxic doses and inconclusive results are not listed.
REPORTED ENDPOINT: T/C

These solved cases illustrate the format of a correct answer.
COMPOUND: Nc1c(Cl)c(Cl)c(Br)c(Cl)c1Cl
T/C: 90 % of control
//
COMPOUND: O=[N+]([O-])c1cc(NC(=S)SCc2ccc(Cl)cc2)ccc1Cl
T/C: 106 % of control
//
COMPOUND: CC(=O)Nc1ccc(C(=O)O)cc1[N+](=O)[O-]
T/C: 99 % of control
//
COMPOUND: COc1ccc(N=C/C=C/c2ccccc2)cc1
T/C: 118 % of control

State the recorded T/C for every item in the following list.
1. C(=C\c1nc2ccccc2s1)/c1ccc2c(c1)OCO2
2. CCCCCCCCCCCCCCCCNc1cccc2ccccc12
3. O=C(OCC1C=C(OC(=O)c2ccccc2)C(=O)C(OC(=O)c2ccccc2)O1)c1ccccc1 (stereo unspecified)
4. O=C1c2ccccc2Cc2c(NCc3ccccc3)ncnc2N1Cc1ccccc1

*A*
90 % of control
100 % of control
93 % of control
101 % of control

State the recorded T/C for every item in the following list.
1. O=C(Nc1ccc(Cl)cc1)OCC12COCN1COC2
2. C=C(C)C1Cc2c(ccc3c2OC2COc4cc(OC)c(OC)cc4C2C3=O)O1 (stereo unspecified)
3. N=C1SCc2ccc3ccccc3c21
4. Cc1ccc(S(=O)(=O)N/N=C/C(C)c2cccnc2)cc1 (stereo unspecified)

*A*
1. 95 % of control
2. 86 % of control
3. 124 % of control
4. 99 % of control

State the recorded T/C for every item in the following list.
1. Nc1ccncc1C(=O)O
2. CCCCCCCOCC(=O)O
3. C=C(C)C1CC=C(C)CC1 (stereo unspecified)
4. NNC(=O)c1cccc(C(=O)NN)c1
5. CCc1ccc(S(=O)(=O)O)cc1
6. CCc1c(-c2ccccc2)[nH]c2ccccc12
7. COc1ccc2c(c1)CSC(c1ccccc1)=C2

*A*
["99 % of control", "94 % of control", "95 % of control", "97 % of control", "94 % of control", "115 % of control", "93 % of control"]

State the recorded T/C for every item in the following list.
1. CCCCCCOCC(=O)O
2. O=S1(=O)C(c2ccc(F)cc2)=C(O)c2cc3ccccc3nc21
3. CC(Br)C(=O)c1ccc(OCc2ccccc2)cc1 (stereo unspecified)

*A*
91 % of control
97 % of control
124 % of control

State the recorded T/C for every item in the following list.
1. NC(=S)C1OC(COC(=O)c2ccccc2)C(OC(=O)c2ccccc2)C1OC(=O)c1ccccc1 (stereo unspecified)
2. O=c1ccc(=O)c2c(=O)c3cc4[nH]c5ccccc5[nH]c4cc3c(=O)c12
3. CC(C)(C)OC(=O)NC(Cc1cn(Cc2ccccc2)cn1)C(=O)O (stereo unspecified)
4. Nc1c(Cl)c(Cl)nc(C(=O)O)c1Cl

*A*
1: 94 % of control; 2: 88 % of control; 3: 89 % of control; 4: 100 % of control
